- Test target: T1, CD134 protein (His-tagged, Sino Biological Inc. 10481-H08H) (human, UniProt P43489 29-216)
- T1 construct: bought protein coated on ELISA plates; also called OX40; TNFRSF4; not shown: His tag
- T1 sequence (looked up): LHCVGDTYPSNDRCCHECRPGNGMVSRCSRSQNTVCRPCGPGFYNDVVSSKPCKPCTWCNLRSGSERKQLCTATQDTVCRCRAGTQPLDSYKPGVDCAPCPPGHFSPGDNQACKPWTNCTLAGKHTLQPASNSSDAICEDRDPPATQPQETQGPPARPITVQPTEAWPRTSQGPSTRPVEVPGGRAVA
- Method description: ELISA, coated His-tagged CD134; also: test concentration or dose not given here
Kindly supply the reported ELISA [abs. corr.] values for the records listed here.
Answers are plain numbers, in abs. corr..

Some binders with known ELISA [abs. corr.] results, for comparison:
Binder | ELISA [abs. corr.] (abs. corr.)
P018.S.11.A.C03 (antibody, V domains shown, V regions on human Ig constant parts; also called AB134_28) VH: QSVEESGGRLVTPGTPLTLTCKVSGFSLSTYDMIWVRQAPAKGLEYIGIIGGSGFTYYANWAKGRFTISKTSTTVDLKITSPTTEDTATYFCARNNYDMWGPGTLVTVSS VL: DVVMTQTPASVSEPVGGTVTIKCQASQSISNELAWHQQKPGQRPNLLIYGASTLESGVPSRFKGSRSGTEYTLTISDLESDDAATYYCQCTYYGSSYVGGAFGGGTEVVVK | 1.53
P018.S.12.A.F04 (antibody, V domains shown, V regions on human Ig constant parts; also called AB134_80) VH: QQQLEESGGGLVKPGGTLTLTCTASGIDFSSYWMWWVRQPPGKGLEWVACIYNGDGSTYYASWAKGRFTISKTSSTTVTLQMTSLTAADTATYFCARDFHLWGPGTLVTVSS VL: AQVLTQTASPVSAAVGSTVTINCQASQNIYKNNYLSWYQQKPGQPPKGLIYSASTLDSGVPLRFSGSGSGTKFTLTISDVQSDDAATYYCLGSVACSGPDCIVFGGGTEVVVK | 2.11
P018.S.11.A.C04 (antibody, V domains shown, V regions on human Ig constant parts; also called AB134_29) VH: QSVEESGGRLVTPGTPLTLTCTVSGFSLGSYPMIWVRQAPGKGLEWIGYIDPGRGTTLYASWARGLFTISKTSTTVDLAMTSPTAADTATYFCARSYPGDGAGDLWGQGTLVTVSS VL: DVVMTQTPASVSEPVGGTVTIKCQASESISNYFSWYQQKPGQPPKLLIYGASTLESGVSSRFKGSGSGTDFTLTISDLESADAATYYCQCTYYGSGDVGGAFGGGTEVVVK | 1.96

Respectfully, I request ELISA [abs. corr.] for each entry included below.
1. P018.S.12.A.E04 (antibody, V domains shown, V regions on human Ig constant parts; also called AB134_75) VH: QSVEESGGRLVTPGTPLTLTCTVSGFSLNSYDMSWVRQAPGKGLEWIGFISASGSIYFANWAKGRFTISKTSTTVDLKITSPTTEDTATYFCASDSYGWAYVYYFNLWGPGTLVTVSS VL: AVVLTQTPASVSAAVGGTVTINCRASEDVGSYLGWYQQRAGQPPKLLMHDASDLASGVPSRFSGSGSGTEFTLTISGVQSDDAATYYCQSAWLGTNTDKMAFGGGTEVVVK
2. P018.S.12.A.C06 (antibody, V domains shown, V regions on human Ig constant parts; also called AB134_66) VH: QSVEESGGRLVKPDETLTLICTVSGIDLSINVVGWVRQAPGEGLEWIGDISSHGDTIYATWAKGRFTISKTSTTVDLKMTSLTASDTATYFCARYVGDGYYDLWGPGTLVTVSS VL: AYDMTQTPASVSAAVGGTVTINCQASQSISNLLAWYQQKPGQRPKLLIYDTSKLASGVPSRFKGSGSGTQFTLTISDLESADAATYYCQQSYSSSNIANLFGGGTEVVVK
3. P018.S.05.A.G05 (antibody, V domains shown, V regions on human Ig constant parts; also called AB134_18) VH: QSVEESGGRLVTPGTPLTLTCTVSGIDLSNHGMGWFRQGPGKGLEWIGIIYIDGGASYASWVNGRFTISKTSTTVDLKITSPTTEDTATYFCARGIPSDGDSSYYYFNLWGQGTLVTVAS VL: DVVMTQTPASVEAAVGGTVTIKCQASQSVYNKYLSWFQQKPGQPPKLLIYRASTLESGVSSRFKGSGSGTEFTLTISDLESADAATYYCQNNNGAGDNTDYTFGGGTEVVVK
4. P018.S.12.A.E01 (antibody, V domains shown, V regions on human Ig constant parts; also called AB134_72) VH: QSVEESGGRLVTPGGSLTLTCTVSGIDLSSADMSWVRQAPGEGLEYIGWINNVGSAYYASWAKGRFSISKTSSTTVDLKVTSLTTEDTATYFCVRGYWLDLWGQGTLVTVSS VL: AAVLTQTPSPVSAAVGGTVSISCQSSVNVYNNNYLAWFQQKPGQPPKLLIYAASTLPSGVSSRFSGNGSGTEFTLTISGVQSDDAATYYCVGYYSSTDDNGFGGGTEVVVK
5. P018.S.11.A.E02 (antibody, V domains shown, V regions on human Ig constant parts; also called AB134_33) VH: QEQLEESGGDLVKPEGSLTLTCTASGFSFNVDYYMCWVRQAPGKGLEWIACIYVGSEGSTYYASWAKGRFTISKTSSTTVTLQMTSLTAADTATYFCARHYAGYAGYNYATDYYFTLWGPGTLVTVSS VL: DIVMTQTPSSVSAGVGGTVTINCQASQSVTNFLSWYQQKPGQPPKLLIYGASTLASGVPSRFKGSGSGTEFTLTISGMKAEDVATYYCQSGYYSATFGAGTKVEIK
6. P018.S.11.A.A04 (antibody, V domains shown, V regions on human Ig constant parts; also called AB134_21) VH: QSVEESGGRLVTPGTPLTLTCTVSGFSLSSYAMGWVRQAPGKGLEYIGVISTSANTYYATWAKGRFTISKTSTTVDLRITSPTTEDTATYFCARVVGLYDSYGDVDATYDAFDPWGPGTLVTVSS VL: AQVLTQTASPVSAAVGDTVTINCQSSQSVYNNNLLSWYQQKPGQPPKLLVYDASNLASGVPHRFSGSGSGTQFTLTISGVQSDDAATYYCLGGYDDDADIYAFGGGTEVVVK

### Response
2.21
2.35
2.62
2.55
2.65
2.1

Recorded ELISA [abs. corr.] (binder P018.S.12.A.C03 (antibody, V domains shown, V regions on human Ig constant parts; also called AB134_63) VH: QEQLKESGGDLVTPGTPLTLTCTVSGFSLSSYAMAWVRQAPGKGLEYIGFIDTDGSAYYASWAKGRFTISRTSTTVDLKITSPTTEDTATYFCAGDSYGYAGFVYFNLWGPGTLVTVSS VL: DVVMTQTPASVSEPVGGTVTIKCQASQNIYSSLAWYQQKPGQPPKLLIYDASDLASGVPSRFKGSGSGTQFTLTISDLESDDAATYYCQCSYYGVDYVGGFGGGTEVVVK ): 1.96
